Data provenance: ChEMBL document CHEMBL3507680

- test details: Human HepG2 cell viability assay in 384 well format
- Assay type: toxicity, cell-based
- Parameters: dose 125 nL, time 70.5 hour; concentration not given beside the values
- run conditions: HepG2 cells, read-out: Inhibition
Each entry below carries its recorded cytotoxicity at 70.5 h.
Number first, unit second: that is the form wanted.

// worked examples, cytotoxicity at 70.5 h included
> print(dat)
                                   molecule         measured.metric  value.measured
1  O=C(CN1CCS(=O)(=O)CC1)NC1CCOc2ccccc21 (centres undefined)  cytotoxicity at 70.5 h          -3.04%
2  Cc1cc(C)n(Cc2ccc(C(=O)NCCN3CCOCC3)cc2)n1  cytotoxicity at 70.5 h           1.27%
3          Cc1noc(C)c1CN(C)C(=O)C1(N)CCCCC1  cytotoxicity at 70.5 h          -2.97%
4               COc1cccc(-c2c[nH]c(C)n2)c1F  cytotoxicity at 70.5 h          -11.2%
5  Cc1nccc(CNC(=O)NCCC(=O)N2CCCc3ccccc32)n1  cytotoxicity at 70.5 h          -2.13%

Query block: Quick one: cytotoxicity at 70.5 h for "CCOc1cc(C(=O)O)cc(-c2ccccc2)c1OC" ?
Result block: -1.01%

Query block: Follow-up entry: "Cc1nc2c(c(NC3CCN(Cc4cccnc4)CC3)n1)CCNCC2"
Result block: -18.8%

Query block: Follow-up entry: CCCc1nc(C)cc(N2CCNC(C(=O)NC3CC3)C2)n1 (centres undefined)
Result block: 2.45%

Query block: Follow-up entry: CC(C)c1nc(C2CCCN2C(=O)c2cnc[nH]2)no1 (centres undefined)
Result block: 21.4%

---

- test details: Human HepG2 cell viability assay in 384 well format
- Format: toxicity, cell-based
- Design: dose 125 nL, time 70.5 hour; concentration not given beside the values
- run conditions: HepG2 cells, read-out: Inhibition
measured metric: cytotoxicity at 70.5 h (%)
Reply numerically in %, unit not repeated.

// worked examples, cytotoxicity at 70.5 h included
> print(dat)
                                   molecule  result.unit  value.measured
1  NC(=O)c1cc(C2CCCN(C(=O)CCc3cscn3)C2)n[nH]1 (configuration not stated)            %           -11.7
2  COc1cc(N2C[C@@H](C)[C@](O)(C3CC3)C2)nc(N)n1            %           -3.32
3  O=C1NC2(Nc3ncccc31)C(=O)Nc1c2ccc(Cl)c1F (configuration not stated)            %           -6.95
4  CC1N(CC2CC2)C(=O)COC12CCN(Cc1nccs1)CC2 (configuration not stated)            %           -8.15
5      Cc1noc(Cl)c1CCC(=O)N1CCC(CC(N)=O)CC1            %           -4.77

Query block: Quick one: cytotoxicity at 70.5 h for "Cc1ccc(CNC(=O)Cn2nc(-c3ccc(F)cc3)oc2=O)cc1F" ?
Result block: -7.42

Query block: Follow-up entry: "O=C(Nc1ccccn1)C1(n2cnnn2)CCCCC1"
Result block: -21.1

Query block: Follow-up entry: "Fc1cnc(N2CCCn3cnc(COc4cccnc4)c3C2)nc1"
Result block: -2.49

Query block: Follow-up entry: "Cc1nn(CC(=O)Nc2cccc(F)c2)c(N)c1C#N"
Result block: -5.02

Query block: Follow-up entry: "CN(C)c1ncccc1CNS(=O)(=O)c1ccccc1Cl"
Result block: -4.36

Query block: Follow-up entry: CN(C)c1nc(CNC(=O)Nc2cccc([S+](C)[O-])c2)cs1 (configuration not stated)
Result block: -5.56

Query block: Follow-up entry: Cn1cc(N2CCC(NC(=O)c3ccccc3F)C2=O)cn1 (configuration not stated)
Result block: -1.23

---

- test details: Human HepG2 cell viability assay in 384 well format
- Type: toxicity, cell-based
- Design: dose 125 nL, time 70.5 hour; concentration not given beside the values
- run conditions: HepG2 cells, read-out: Inhibition
measured metric: cytotoxicity at 70.5 h (%)
Reply numerically in %, unit not repeated.

// worked examples, cytotoxicity at 70.5 h included
> print(dat)
                                   compound  result.unit  value.measured
1  C[C@@H]1CN(C(=O)c2cccc(F)c2)C[C@]12CCN(c1ccsc1)C2=O            %           -16.2
2  CC[C@H](C)[C@@H](CO)NC(C)Cc1ccc(C)cc1 (stereo partly drawn)            %              -2
3      NC(=O)N1C[C@H]2CN(Cc3nccs3)C[C@H]2C1            %           -18.2

Query block: Quick one: cytotoxicity at 70.5 h for "NC(=O)C1CCN(C(=O)NCCNc2ccccn2)CC1" ?
Result block: -1.19

Query block: Follow-up entry: CC(C)Nc1cc(-c2c[nH]nc2C2CCN(C(=O)C3CCC3)C2)ccn1 (stereo not drawn)
Result block: 95.8

Query block: Follow-up entry: CC(C#N)CN(C)Cc1cc(Cl)cc2cccnc12 (stereo not drawn)
Result block: -0.893

Query block: Follow-up entry: "c1cncc(OC[C@]23COC[C@H]2CN(Cc2nccs2)C3)c1"
Result block: -120

Query block: Follow-up entry: Cc1nc(C)n(CC2CCCN2Cc2nc(N)c3ccccc3n2)n1 (stereo not drawn)
Result block: -4.33

Query block: Follow-up entry: "COc1ccccc1CN1CC[C@H]2C[C@H](C(=O)N3CCCC3)O[C@H]2C1"
Result block: 15.4

Query block: Follow-up entry: "CC(C)(C)CC(=O)N1C[C@H]2CCN[C@H]2C1"
Result block: -2.71

Query block: Follow-up entry: "COc1cc(C(=O)NCC2(N(C)C)CCN(C)CC2)c2ccccc2n1"
Result block: 0.627

Query block: Follow-up entry: CCN1CCC(NC(=O)CN2CCCCC2Cn2cncn2)CC1 (stereo not drawn)
Result block: 0.615

---

- test details: Human HepG2 cell viability assay in 384 well format
- Format: toxicity, cell-based
- Set-up: dose 125 nL, time 70.5 hour; concentration not given beside the values
- run conditions: HepG2 cells, read-out: Inhibition
measured metric: cytotoxicity at 70.5 h (%)
Reply numerically in %, unit not repeated.

// worked examples, cytotoxicity at 70.5 h included
> print(dat)
                                   molecule  value.measured
1         CCc1nnc(CS(=O)(=O)c2ccc(C)cc2)n1C          -0.707
2        OCCn1nccc1C1CCN(CCOc2cccc(F)c2)CC1           -1.45
3  CN(C(=O)c1ccc[nH]1)C1CC(=O)N(Cc2ccccc2)C1=O (stereo unspecified)           -4.14
4  CN(C)S(=O)(=O)c1ccc(=O)n(CC2CCCO2)c1 (stereo unspecified)           -1.56
5  CCC(C)NC(=O)c1snnc1-c1ccc(OC)cc1 (stereo unspecified)           0.408

Query block: Quick one: cytotoxicity at 70.5 h for "CN(Cc1ccco1)[C@@H]1CN(CC2CCOCC2)C[C@@H]2CCCO[C@@H]21" ?
Result block: 4.38

Query block: Follow-up entry: CNc1cc(C2CN(C(=O)c3ccn(C)n3)CCO2)nc(C)n1 (stereo unspecified)
Result block: 26.5

Query block: Follow-up entry: "O=C(C1CC1)N1CCc2[nH]cnc2C12CCN(C1CCOCC1)CC2"
Result block: -2.02

Query block: Follow-up entry: "CCCN1CCC(c2nc3ccc(-c4cccc(OC)c4)cn3n2)CC1"
Result block: -1.57

Query block: Follow-up entry: CC(C)n1cnc2c1C(C(=O)N1CCCC1)N(S(C)(=O)=O)CC2 (stereo unspecified)
Result block: -0.195

Query block: Follow-up entry: "Cc1c(NC(=O)c2ncn[nH]2)cccc1C(=O)NC(C)(C)C"
Result block: -12.5

Query block: Follow-up entry: "CC(=O)Nc1ccc(CN2C[C@H]3CC[C@@H]2CN(c2ncccn2)C3)cc1"
Result block: -4.04

Query block: Follow-up entry: "COCCN(Cc1ccc(F)cc1Cl)C(=O)c1ccc(=O)[nH]n1"
Result block: -3.15

Query block: Follow-up entry: CC(Cn1cccn1)NC(=O)Nc1ccccn1 (stereo unspecified)
Result block: -8.38

Query block: Follow-up entry: CCC(CN1CCOCC1)n1cncc1-c1ccc2c(c1)CCN2CC (stereo unspecified)
Result block: 21

Query block: Follow-up entry: CC(=O)c1ccc(NC(=O)NC(C(=O)N(C)C)C(C)C)cc1 (stereo unspecified)
Result block: -4.29

Query block: Follow-up entry: "CNc1cc(C)nc(N2Cc3cnn(Cc4ccc(F)cc4)c3C2)n1"
Result block: 11.4

Query block: Follow-up entry: CC(C)c1ncc(C(=O)N2CCOCC2CC(=O)c2ccco2)s1 (stereo unspecified)
Result block: -2.34

Query block: Follow-up entry: O=C(Nc1ccc(OC2CCCC2)cc1)C1CCCN1c1nccs1 (stereo unspecified)
Result block: 26.8

Query block: Follow-up entry: O=C(NCC1CCOC1)N1CCN(Cc2ccc3c(c2)OCO3)CC1 (stereo unspecified)
Result block: 3.28

Query block: Follow-up entry: c1ccc(-n2nc(CNC3CCc4ncnn4C3)c3c2CCC3)cc1 (stereo unspecified)
Result block: 9.35

Query block: Follow-up entry: CC(C)c1ccc(C(C)N2CCCN(C(N)=O)CC2)cc1 (stereo unspecified)
Result block: -5.71

Query block: Follow-up entry: "N#Cc1nccnc1NCCC1CCN(CC(F)(F)F)CC1"
Result block: 21.7
